test system: db/db mice; assay: Evaluation of glucose levels in db/db mice; assay type: in vivo; details: Mus musculus, 168 h, 30 mg/kg oral gavage daily for 7 days, 100% = glucose not different from lean values, read-out: Glucose Normalisation
Listed here: items and their measured inhibition in vivo at 30 mg/kg.
// note: answer is a bare numeric in %

Example compounds with recorded inhibition in vivo at 30 mg/kg:
Cc1oc(C2(C)CCCCC2)nc1CCOc1ccc(C[C@](C)(Oc2ccc(F)cc2)C(=O)O)cc1; 96
COc1ccc(OC(C)(Cc2ccc(OCCc3nc(-c4cccs4)oc3C)cc2)C(=O)O)cc1 (stereo not shown); 95

Reported inhibition in vivo at 30 mg/kg of Cc1cccc(OC(C)(Cc2ccc(OCCc3nc(C4CCCCC4)oc3C)cc2)C(=O)O)c1 (stereo not shown) : 79

Reported inhibition in vivo at 30 mg/kg of Cc1oc(-c2cccs2)nc1CCOc1ccc(CC(C)(Oc2ccc(C(F)(F)F)cc2)C(=O)O)cc1 (stereo not shown) : 88

Reported inhibition in vivo at 30 mg/kg of Cc1oc(-c2cccs2)nc1CCOc1ccc(C[C@](C)(Oc2ccccc2)C(=O)O)cc1 : 86

Reported inhibition in vivo at 30 mg/kg of Cc1oc(C2CCCCC2)nc1CCOc1ccc(CC(C)(Oc2ccccc2)C(=O)O)cc1 (stereo not shown) : 86

Reported inhibition in vivo at 30 mg/kg of Cc1oc(-c2cccs2)nc1CCOc1ccc(CC(C)(Oc2ccc(F)cc2)C(=O)O)cc1 (stereo not shown) : 97

Reported inhibition in vivo at 30 mg/kg of Cc1oc(CCc2ccccc2)nc1CCOc1ccc(C[C@](C)(Oc2ccccc2)C(=O)O)cc1 : 92

Reported inhibition in vivo at 30 mg/kg of Cc1oc(-c2ccccc2)nc1CCOc1ccc(CC(C)(Oc2ccc3c(c2)OCO3)C(=O)O)cc1 (stereo not shown) : 86

Reported inhibition in vivo at 30 mg/kg of Cc1oc(-c2ccccc2)nc1CCOc1ccc(C[C@](C)(Oc2ccccc2)C(=O)O)cc1 : 85

Reported inhibition in vivo at 30 mg/kg of Cc1oc(C2CCCCC2)nc1CCOc1ccc(CC(C)(Oc2ccc(C(C)(C)C)cc2)C(=O)O)cc1 (stereo not shown) : 110

Reported inhibition in vivo at 30 mg/kg of Cc1cccc(OC(C)(Cc2ccc(OCCc3nc(-c4cccs4)oc3C)cc2)C(=O)O)c1 (stereo not shown) : 79

Reported inhibition in vivo at 30 mg/kg of Cc1oc(-c2ccccc2)nc1CCOc1ccc(CC(C)(Oc2ccc(Cl)cc2)C(=O)O)cc1 (stereo not shown) : 86

Reported inhibition in vivo at 30 mg/kg of Cc1ccc(OC(C)(Cc2ccc(OCCc3nc(C4CCCCC4)oc3C)cc2)C(=O)O)cc1 (stereo not shown) : 101

Reported inhibition in vivo at 30 mg/kg of Cc1oc(-c2cccs2)nc1CCOc1ccc(CC(C)(Oc2cccc(C(C)(C)C)c2)C(=O)O)cc1 (stereo not shown) : 73

Reported inhibition in vivo at 30 mg/kg of Cc1oc(C2CCCCC2)nc1CCOc1ccc(CC(C)(Oc2ccc(F)cc2)C(=O)O)cc1 (stereo not shown) : 99

* * *

test system: db/db mice; assay: Evaluation of glucose levels in db/db mice; type: in vivo; conditions: Mus musculus, 168 h, 30 mg/kg oral gavage daily for 7 days, 100% = glucose not different from lean values, read-out: Glucose Normalisation
Listed here: items and their measured inhibition in vivo at 30 mg/kg.
// note: answer is a bare numeric in %

Summary line: Cc1oc(C2CCCCC2)nc1CCOc1ccc(CC(C)(Oc2ccc(C3CCCCC3)cc2)C(=O)O)cc1 (stereo not shown) , db/db mice, reported inhibition in vivo at 30 mg/kg = 80

Summary line: Cc1oc(C2CCCCC2)nc1CCOc1ccc(CC(C)(Oc2ccc(C(F)(F)F)cc2)C(=O)O)cc1 (stereo not shown) , db/db mice, reported inhibition in vivo at 30 mg/kg = 98

Summary line: Cc1oc(C2CCCCC2)nc1CCOc1ccc(CC(C)(Oc2ccc(OC(F)(F)F)cc2)C(=O)O)cc1 (stereo not shown) , db/db mice, reported inhibition in vivo at 30 mg/kg = 83
